Values were extracted from patent US20210324028A1.

// values below are reported Kd
- Experimental system: T1, human IL-15Rα (human, UniProt Q13261 31-205, limits assumed)
- T1 construct: also called hIL-15Rα; IL-15 receptor alpha
- T1 sequence (Q13261 31-205 limits assumed): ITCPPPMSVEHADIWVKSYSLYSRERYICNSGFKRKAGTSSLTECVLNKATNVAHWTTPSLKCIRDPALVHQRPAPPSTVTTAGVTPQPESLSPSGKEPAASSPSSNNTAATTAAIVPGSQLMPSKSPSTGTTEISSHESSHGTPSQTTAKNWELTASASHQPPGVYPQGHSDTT
- Measurement notes: SPR, steady state
Output spec: scalar in nM, unitless text.

Binder	Experimental result
hIL-15 V49R/N1S (ligand) SWVNVISDLKKIEDLIQSMHIDATLYTESDVHPSCKVTAMKCFLLELQRISLESGDASIHDTVENLIILANNSLSSNGNVTESGCKECEELEEKNIKEFLQSFVHIVQMFINTGGGGSGHHHHHHHHGGGLNDIFEAQKIEWHE	140
hIL-15 V49R/L69M (ligand) NWVNVISDLKKIEDLIQSMHIDATLYTESDVHPSCKVTAMKCFLLELQRISLESGDASIHDTVENLIIMANNSLSSNGNVTESGCKECEELEEKNIKEFLQSFVHIVQMFINTGGGGSGHHHHHHHHGGGLNDIFEAQKIEWHE	74.5
hIL-15 V49R/N4G (ligand) NWVGVISDLKKIEDLIQSMHIDATLYTESDVHPSCKVTAMKCFLLELQRISLESGDASIHDTVENLIILANNSLSSNGNVTESGCKECEELEEKNIKEFLQSFVHIVQMFINTGGGGSGHHHHHHHHGGGLNDIFEAQKIEWHE	105
hIL-15 V49R/K11D (ligand) NWVNVISDLKDIEDLIQSMHIDATLYTESDVHPSCKVTAMKCFLLELQRISLESGDASIHDTVENLIILANNSLSSNGNVTESGCKECEELEEKNIKEFLQSFVHIVQMFINTGGGGSGHHHHHHHHGGGLNDIFEAQKIEWHE	242

Shifting focus to the binder that follows.
Looking up hIL-15 V49R/N72K (ligand) NWVNVISDLKKIEDLIQSMHIDATLYTESDVHPSCKVTAMKCFLLELQRISLESGDASIHDTVENLIILANKSLSSNGNVTESGCKECEELEEKNIKEFLQSFVHIVQMFINTGGGGSGHHHHHHHHGGGLNDIFEAQKIEWHE , I see its Kd listed as 101
